Reported Human Plasma Anticoagulation 2x Clotting time APTT values are given for each entry in this list.
tested on: Human Plasma; experiment: Human plasma anticoagulation, activated partial thromboplastin time (APTT); type: biochemical; conditions: concentration required to double the clotting time

Consider the reported Human Plasma Anticoagulation 2x Clotting time APTT for these compounds:
# COMPOUND, RESULT
records = [
    ("N=C(N)c1ccc(CCNC(=O)[C@@H]2CCCN2C(=O)[C@@H]2NCC[C@@H]3CCCC[C@@H]32)cc1 [Example 28]", "8,100 ng/mL"),
    ("CCC(CC)C(=O)N[C@@H](CCS(C)(=O)=O)C(=O)N1CCC[C@H]1C(=O)NCc1ccc(C(=N)N)cc1 [Example 91]", "3,000 ng/mL"),
    ("Cl.O=C(O)CN[C@H](CC1CCCCC1)C(=O)N1CCC[C@H]1C(=O)NCC1=CCNCC1 [Example 58]", "14,300 ng/mL"),
]

Missing value: Human Plasma Anticoagulation 2x Clotting time APTT, Human Plasma, entry N=C(N)c1cccc(CCNC(=O)[C@@H]2CCCN2C(=O)[C@@H]2NCC[C@@H]3CCCC[C@@H]32)c1 [Example 29] . Fill in? 9,800 ng/mL

* * *

Measured Kass × 10^6 (L/mole) Trypsin accompanies every entry in the list below.
Biological target: Bovine trypsin (Bos taurus)
Construct: Bovine trypsin is purchased from Worthington Biochemicals; purchased Worthington Biochemicals, Freehold, N.J
Sequence (P00760 24-246): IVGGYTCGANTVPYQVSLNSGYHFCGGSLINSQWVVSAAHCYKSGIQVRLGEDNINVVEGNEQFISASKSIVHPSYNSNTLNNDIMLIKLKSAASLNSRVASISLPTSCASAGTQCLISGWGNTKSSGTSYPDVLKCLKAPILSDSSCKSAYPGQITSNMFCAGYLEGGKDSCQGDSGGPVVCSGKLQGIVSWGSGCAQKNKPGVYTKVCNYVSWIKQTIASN
Assay: Kass, trypsin chromogenic substrate assay
Format: biochemical
Conditions: substrate N-Benzoyl-Phe-Val-Arg-p-nitroanilide
Counter-ions that a name gives are not always drawn.

See these solved cases before continuing.
# COMPOUND, Kass × 10^6 (L/mole) Trypsin
records = [
    ("Cl.Nc1cc(CCNC(=O)[C@@H]2CCCN2C(=O)[C@@H](CC2CCCCC2)NCC(=O)O)ccn1 [Example 76]", "0.36 × 10^6 L/mole"),
    ("CCOC(=O)N[C@H](Cc1ccccc1)C(=O)N1CCC[C@H]1C(=O)NCCCCN=C(N)N.Cl [Example 3, EtOCO-D-Phe-Pro-Agm.HCl]", "0.24 × 10^6 L/mole"),
]

Look up Kass × 10^6 (L/mole) Trypsin for this compound: N=C(N)NCCCCNC(=O)[C@@H]1CCCN1C(=O)[C@@H]1NCC[C@H]2CCCC[C@H]21 [Example 61, trihydrochloride] 1.0 × 10^6 L/mole

Bench note: what Kass × 10^6 (L/mole) Trypsin did N=C(N)NCCCNC(=O)[C@@H]1CCCN1C(=O)[C@H](N)Cc1ccccc1 [Example 7, D-Phe-Pro-NH(CH2)3 NHC(NH)NH2.HCl] show? 0.0081 × 10^6 L/mole

What value of measured Kass × 10^6 (L/mole) Trypsin is listed for N=C(N)c1ccc(CCNC(=O)[C@@H]2CCCN2C(=O)[C@@H]2NCC[C@@H]3CCCC[C@@H]32)cc1 [Example 28] ? 0.11 × 10^6 L/mole
